- system: BuChE isolated from human plasma (hBuChE) (Homo sapiens, UniProt P06276)
- Construct: BuChE isolated from human plasma (hBuChE); tissue Vivonics (Bedford, MA, USA), donated
- Sequence (P06276 29-602): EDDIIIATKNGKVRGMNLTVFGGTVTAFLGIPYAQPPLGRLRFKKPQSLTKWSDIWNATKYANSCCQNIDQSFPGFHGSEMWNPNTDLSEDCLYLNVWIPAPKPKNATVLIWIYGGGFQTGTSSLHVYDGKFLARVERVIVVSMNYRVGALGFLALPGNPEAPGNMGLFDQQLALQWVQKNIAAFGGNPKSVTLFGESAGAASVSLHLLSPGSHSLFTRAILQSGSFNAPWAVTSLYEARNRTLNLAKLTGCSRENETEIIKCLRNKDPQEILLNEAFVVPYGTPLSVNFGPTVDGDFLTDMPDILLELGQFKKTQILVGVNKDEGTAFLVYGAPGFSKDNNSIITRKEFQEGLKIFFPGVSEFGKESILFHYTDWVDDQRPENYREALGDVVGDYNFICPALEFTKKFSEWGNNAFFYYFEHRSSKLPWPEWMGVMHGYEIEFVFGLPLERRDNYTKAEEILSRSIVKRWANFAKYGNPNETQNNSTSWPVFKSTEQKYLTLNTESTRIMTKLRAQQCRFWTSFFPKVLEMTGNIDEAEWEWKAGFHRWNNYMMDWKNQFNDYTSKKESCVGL
- method: biochemical
- applied_conditions: mean ± SEM of at least three experiments
readout_label: IC50 (nM)
Dear colleague, please return just the value in nM, with no unit written.

Would you please look over these solved cases?
O=S(=O)(c1ccccc1)N1CCc2c(OCCNCC3CCN(Cc4ccccc4)CC3)cccc21 [Compound 15]
5410
O=c1[nH]c2c(OCCNCCC3CCN(Cc4ccccc4)CC3)cccc2n1Cc1ccccc1 [Compound 18]
1160
O=S(=O)(c1ccccc1)n1ccc2c(OCCNCCCC3CCN(Cc4ccccc4)CC3)cccc21 [Compound 14]
16
O=S(=O)(c1ccccc1)N1CCc2c(OCCNCCCC3CCN(Cc4ccccc4)CC3)cccc21 [Compound 16]
487

I have this molecule here, O=S(=O)(c1ccccc1)n1ccc2c(OCCNCCC3CCN(Cc4ccccc4)CC3)cccc21 [Compound 13] , and I need its recorded IC50. 1110

I have this molecule here, O=c1[nH]c2c(OCCNCCCC3CCN(Cc4ccccc4)CC3)cccc2n1Cc1ccccc1 [Compound 19] , and I need its recorded IC50. 613

----------
- method: ABTS free radical scavenging assay
- applied_conditions: 30 µM, 5 min
So basically: % of ABTS• reduction ± SD at 7% or higher? That is t. Lower than 7%? That is f.

Decide: % of ABTS• reduction ± SD of O=c1[nH]c2c(OCCNCC3CCN(Cc4ccccc4)CC3)cccc2n1Cc1ccccc1 [Compound 17] >= 7%? t

Decide: % of ABTS• reduction ± SD of O=S(=O)(c1ccccc1)n1ccc2c(OCCNCCCC3CCN(Cc4ccccc4)CC3)cccc21 [Compound 14] >= 7%? f

Decide: % of ABTS• reduction ± SD of Cc1c(C)c2c(c(C)c1O)CCC(C)(C(=O)O)O2 (centres unmarked) [Trolox, reference compound] >= 7%? t

Decide: % of ABTS• reduction ± SD of O=c1[nH]c2c(OCCNCCCC3CCN(Cc4ccccc4)CC3)cccc2n1Cc1ccccc1 [Compound 19] >= 7%? t

All figures here come from paper PMC9409043.
